Tested on: RXF 393 renal
Experiment: NCI-60 one-dose screen, 48 h
Settings: 10 µM
About 83,000 compounds went through this panel and 20% of them were active in at least one assay; those are over-represented in the sample as a whole. Active and inactive are the calls of the source. Rule for the calls: active = growth percent below 10; inactive = the rest. Where a SMILES comes first, the peptide text is derived from it. Bridges are numbered along the chain shown (N, C = ends). [ ]: non-standard residue; d: D form. The star is where a group is joined. ξ: configuration not given here. ξNMePhe(4-NMe2) = CNC(Cc1ccc(N(C)C)cc1)C(=O)O; Picolinoyl(3-OH) = O=C(c1ncccc1O)*; ξPip(4-oxo) = O=C1CCNC(C(=O)O)C1; Phg = N[CH](C(=O)O)c1ccccc1; Abu = CC[CH](N)C(=O)O
Your reply should match one of these outcome classes. y = active, n = inactive

{"columns": ["Compound", "Category label"],
 "data": [
  ["O=[N+]([O-])c1ccc(-c2ncc(-c3ccc(Br)cc3)o2)cc1", "n"],
  ["CCCC(C)OCC(=O)O (centres undefined)", "n"],
  ["FC(F)(F)c1ccc2c(c1)N(CCCN1CCN(C3CC3)CC1)c1ccccc1S2", "n"],
  ["COc1cc(C(N)=O)cc(OC)c1OC", "n"],
  ["N#CC1(Nc2ccc3c4c(cccc24)CC3)CCCCC1", "n"],
  ["NC(C(=O)O)c1ccc([N+](=O)[O-])cc1 (centres undefined)", "n"],
  ["CCC1NC(=O)C(NC(=O)c2ncccc2O)C(C)OC(=O)C(c2ccccc2)NC(=O)C2CC(=O)CCN2C(=O)C(Cc2ccc(N(C)C)cc2)N(C)C(=O)C2CCCN2C1=O (centres undefined) (tested in a mixture with another compound) ({Picolinoyl(3-OH)}-T[Abu]P[ξNMePhe(4-NMe2)][ξPip(4-oxo)][Phg]; ester 1-C; configuration not given here)", "n"],
  ["COc1ccc(C(=O)C(Br)C(Br)C(=O)O)cc1 (centres undefined)", "n"],
  ["COc1cc2cc(c1Cl)N(C)C(=O)C[C@H](OC(=O)[C@H](C)N(C)C(C)=O)[C@]1(C)O[C@H]1[C@H](C)[C@@H]1C[C@@](O)(NC(=O)O1)[C@H](OC)C=C/C=C(\\C)C2", "n"],
  ["Nc1ncnc2[nH]ncc12", "n"]
]}

Prompt: Outcome logged for COC(=O)/C=C/C(=O)NC(N)=O in this assay:
Response: n

Prompt: Outcome logged for CC1Cc2ccccc2O1 (centres undefined) in this assay:
Response: n

Prompt: Outcome logged for CC1OC(Oc2c(-c3ccc(O)c(O)c3)oc3cc(O)cc(O)c3c2=O)C(O)C(O)C1O (centres undefined) in this assay:
Response: n
